# experiment_description: chemical genetic growth profiling, strain panel (AID 1159580);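 note: tested at 20 µM; growth read once vehicle control cultures reached saturation at 30 °C; 1 = growth at the plate median or of vehicle wells; lower values mean less growth of the strain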
# experimental_parameters: S. cerevisiae deletion strains, growth OD, locus YPR141C, strain kar3, active compounds read low
Screen size: about 5,500 compounds; about 2,000 (36%) were called active. Another 18% or so got no clear call; they are omitted. Some of the results follow.
# maps each entry to its normalized growth
assay_endpoint: normalized growth

[[record]]
compound = "O=C(O)/C=C1\\CCCc2ccccc2C1O (stereo unspecified)"
assay_endpoint = "normalized growth"
value_reported = 0.964

[[record]]
compound = "COc1ccc2c3c([nH]c2c1)C(C)=NCC3"
assay_endpoint = "normalized growth"
value_reported = 0.984

[[record]]
compound = "CO[C@@]12[C@@H]3NC3CN1C1=C(C(=O)C(N)=C(C)C1=O)[C@@H]2COC(N)=O (stereo partly specified)"
assay_endpoint = "normalized growth"
value_reported = 0.983

[[record]]
compound = "Nc1c2c(nc3ccccc13)CCCC2"
assay_endpoint = "normalized growth"
value_reported = 1.01

[[record]]
compound = "CCCCCCCCCCCC[C@H](C(=O)O)[C@@H](C)C(=O)O"
assay_endpoint = "normalized growth"
value_reported = 1.03

[[record]]
compound = "Nc1c2ccccc2nc2ccccc12 (tested in a mixture with another compound)"
assay_endpoint = "normalized growth"
value_reported = 1

